Value source: PubChem BioAssay AID1159580

Experiment: chemical genetic growth profiling, strain panel (AID 1159580);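 also: tested at 20 µM; growth read once vehicle control cultures reached saturation at 30 °C; 1 = growth at the plate median or of vehicle wells; lower values mean less growth of the strain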
Details: S. cerevisiae deletion strains, growth OD, locus YMR125W, strain sto1, active compounds read low
The whole screen tested about 5,500 compounds, of which about 2,000 (36%) were called active. About 18% were inconclusive and are not listed. Some of the results follow.
value kind: normalized growth
Could you respond with only the numeric value?

Examples from the recorded data:
molecule	normalized growth
COC(=O)[C@]1(C)CC[C@]2(C)CC[C@]3(C)C4=CC=C5C(=CC(=O)C(O)=C5C)[C@]4(C)CC[C@@]3(C)[C@@H]2C1	0.812
COc1cc2c(cc1OC)[C@@H]1C(=O)c3ccc4c(c3O[C@@H]1CO2)CC(C(C)C)O4 (stereo partly drawn)	0.99
CCOc1cccc(C(=O)c2ccc(O)c(O)c2O)c1	0.976
Cc1onc(-c2ccccc2)c1C(=O)NC1C(=O)N2[C@@H]1SC(C)(C)[C@@H]2C(=O)O (stereo partly drawn)	1.02
Cc1onc(-c2ccccc2Cl)c1C(=O)N[C@@H]1C(=O)N2[C@@H]1SC(C)(C)[C@@H]2C(=O)O	1.04
CC(=O)NO	0.963
CN1CCN(CC(=O)N2c3ccccc3C(=O)Nc3cccnc32)CC1	1.01
CC1(C)S[C@@H]2[C@H](NC(=O)[C@H](C(=O)O)c3cccs3)C(=O)N2[C@H]1C(=O)O	1.03

Please find the next molecule below.
What does the record list as normalized growth for CC(=O)Oc1cc2c(c(C)c1OC(C)=O)CC1OC13C2(C)CCC1(C)C2CC(C)(C(=O)O)CCC2(C)CCC13C (stereo not drawn) ?
0.985
